Measured values drawn from patent US20120129842A1 for this set.

Target: proMMP9(67-444;ΔFnII) (SEQ ID NO:5) (Homo sapiens, UniProt P14780, DEL216-390)
Construct: start methionine (N)
Sequence (P14780 with tags, fused parts or gaps DEL216-390): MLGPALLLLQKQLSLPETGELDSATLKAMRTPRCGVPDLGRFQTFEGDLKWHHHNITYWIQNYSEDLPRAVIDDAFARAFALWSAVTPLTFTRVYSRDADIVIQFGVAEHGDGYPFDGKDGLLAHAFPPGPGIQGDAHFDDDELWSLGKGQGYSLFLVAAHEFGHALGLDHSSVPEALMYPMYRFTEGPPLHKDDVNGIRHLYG
Assay: ThermoFluor binding assay with proMMP9(67-444;ΔFnII)
Settings: pH 7.0
Description: The ThermoFluor® (TF) assay is a 384-well plate-based binding assay that measures thermal stability of proteins (Biomol Screen 2001, 6, 429-40; Biochemistry 2005, 44, 5258-66). The experiments were carried out using instruments available from Johnson & Johnson Pharmaceutical Research & Development, LLC. TF dye used in all experiments was […] (1,8-ANS) (Invitrogen: A-47). […]
Readout Label: Kd (nM)

1 = Cc1ccc(C(N)=O)cc1Nc1nc(-c2sc(N)nc2C)cs1 [Example 25]
2 = CCOc1ccc(C(N)=O)cc1Nc1nc(-c2sc(NC(C)=O)nc2C)cs1 [Example 8]
3 = Cc1nc(C)c(-c2csc(Nc3cc(C(N)=O)ccc3OC(C)C)n2)s1 [Example 1]
4 = Cc1nc(N)sc1-c1csc(Nc2cc(S(N)(=O)=O)ccc2OC(C)C)n1 [Example 60]
Exercise: Let's sort these by Kd, smallest first. Go ahead? Your answer should be the labels, listed in the requested order.
Key: 4, 3, 2, 1
